Test system: uninfected MT2 cells
Assay: Compound cytotoxicity, XTT-based colorimetric assay
Assay type: cell-based
Settings: Table 1a, day 4, XTT
Overview of reported CC50 across a group of molecules:
Value type: CC50

{"Molecule": "COc1cccc2nc([C@H](Cc3cc(F)cc(F)c3)NC(=O)Cn3nc(C(F)F)c4c3C(F)(F)[C@@H]3C[C@H]43)n(-c3ccc(Cl)c4c(NS(C)(=O)=O)nn(C)c34)c(=O)c12 (mixture of isomers) [Example 170]", "Value type": "CC50", "Reported result": "> 1 µM"}
{"Molecule": "Cc1c(F)ccc2c(=O)n(-c3ccc(Cl)c4c(NS(C)(=O)=O)nn(C)c34)c([C@H](Cc3cc(F)cc(F)c3)NC(=O)Cn3nc(C(F)F)c4c3C(F)(F)[C@@H]3C[C@H]43)nc12 (single isomer, unassigned) [Example 108]", "Value type": "CC50", "Reported result": "> 1 µM"}
{"Molecule": "COc1c(F)ccc2c(=O)n(-c3ccc(Cl)c4c(NS(C)(=O)=O)nn(C)c34)c([C@H](Cc3cc(F)cc(F)c3)NC(=O)Cn3nc(C(F)F)c4c3C(F)(F)[C@@H]3C[C@H]43)nc12 (single isomer, unassigned) [Example 110]", "Value type": "CC50", "Reported result": "> 1 µM"}
{"Molecule": "Cn1nc(NS(C)(=O)=O)c2c(Cl)ccc(-n3c([C@H](Cc4cc(F)cc(F)c4)NC(=O)Cn4ccc(C5CC5)n4)nc4cc(CS(C)(=O)=O)ccc4c3=O)c21 (single isomer, unassigned) [Example 206]", "Value type": "CC50", "Reported result": "> 1 µM"}
{"Molecule": "CC(C)c1ccc(-c2cc3[nH]ccc3nc2[C@H](Cc2cc(F)cc(F)c2)NC(=O)Cn2nc(C(F)F)c3c2C(F)(F)[C@@H]2C[C@H]32)cn1 [Example 82]", "Value type": "CC50", "Reported result": "6.31 µM"}
{"Molecule": "Cn1ccc2nc([C@H](Cc3cc(F)cc(F)c3)NC(=O)Cn3nc(C(F)F)c4c3C(F)(F)[C@@H]3C[C@H]43)c(-c3ccc(Cl)c4c(NS(C)(=O)=O)nn(C)c34)cc21 (single isomer, unassigned) [Example 120]", "Value type": "CC50", "Reported result": "> 10 µM"}
{"Molecule": "Cn1ccc2nc(C(Cc3cc(F)cc(F)c3)NC(=O)Cn3nc(C(F)F)c4c3C(F)(F)[C@@H]3C[C@H]43)c(-c3ccc(Cl)c4c(NS(C)(=O)=O)nn(C)c34)cc21 (single isomer, unassigned) [Example 118]", "Value type": "CC50", "Reported result": "> 10 µM"}
{"Molecule": "Cn1nc(NS(C)(=O)=O)c2c(Cl)ccc(-n3c([C@H](Cc4cc(F)cc(F)c4)NC(=O)Cn4nc(C(F)F)c5c4CCC5)nc4c(F)cc(F)cc4c3=O)c21 (single isomer, unassigned) [Example 100]", "Value type": "CC50", "Reported result": "> 1 µM"}
{"Molecule": "Cn1nc(NS(C)(=O)=O)c2c(Cl)ccc(-c3cc4cc[nH]c4nc3C(Cc3cc(F)cc(F)c3)NC(=O)Cn3nc(C(F)F)c4c3C(F)(F)[C@@H]3C[C@H]43)c21 (single isomer, unassigned) [Example 86]", "Value type": "CC50", "Reported result": "> 10 µM"}

----------
Experiment: Compound cytotoxicity, XTT-based colorimetric assay
Format: cell-based
Conditions: human, uninfected MT2 cells, Table 1, day 4, XTT

{"Compound": "Cn1nc(NS(C)(=O)=O)c2c(Cl)ccc(-n3c(C(Cc4cc(F)cc(F)c4)NC(=O)Cn4nc(C(F)F)c5c4C(F)(F)[C@@H]4C[C@H]54)nc4cccc(Cl)c4c3=O)c21 (mixture of isomers)", "CC50 at 4 days": "> 1 µM"}
{"Compound": "O=C(Cn1nc(C(F)F)c2c1C(F)(F)[C@@H]1C[C@H]21)N[C@@H](Cc1cc(F)cc(F)c1)c1nc2cn[nH]c2cc1-c1ccc2c(c1)CNC2=O", "CC50 at 4 days": "> 10 µM"}
{"Compound": "COC(=O)c1cc(-c2cc3[nH]ncc3nc2[C@H](Cc2cc(F)cc(F)c2)NC(=O)Cn2nc(C(F)F)c3c2C(F)(F)[C@@H]2C[C@H]32)ccc1Cl", "CC50 at 4 days": "8.95 µM"}
{"Compound": "O=C(Cc1c[nH]c2ccc(F)cc12)NC(Cc1cc(F)cc(F)c1)c1nc2cn[nH]c2cc1-c1ccc2scnc2c1 (single isomer, unassigned)", "CC50 at 4 days": "32.1 µM"}
{"Compound": "CC(C)c1ccc(-c2c([C@H](Cc3cc(F)cc(F)c3)NC(=O)Cn3nc(C(F)F)c4c3C(F)(F)[C@@H]3C[C@H]43)nc3ncnn3c2N)cn1", "CC50 at 4 days": "> 10 µM"}

----------
Assay: Compound cytotoxicity, XTT-based colorimetric assay
Assay type: cell-based
Settings: human, uninfected MT2 cells, Table 1a, day 4, XTT

{"Compound": "Cn1nc(NS(C)(=O)=O)c2c(Cl)ccc(-n3c([C@H](Cc4cc(F)cc(F)c4)NC(=O)Cn4nc(C(F)F)c5c4C(F)(F)[C@@H]4C[C@H]54)nc4cc(F)cc(F)c4c3=O)c21 (single isomer, unassigned)", "CC50 at 4 days": "> 1 µM"}
{"Compound": "Cn1nc(NS(C)(=O)=O)c2c(Cl)ccc(-n3c([C@H](Cc4cc(F)cc(F)c4)NC(=O)Cn4nc(C(F)F)c5c4C(F)(F)[C@@H]4C[C@H]54)nc4cc(C(C)(F)F)ccc4c3=O)c21 (mixture of isomers) [Example 195]", "CC50 at 4 days": "> 1 µM"}
{"Compound": "COc1cc(OC)c2c(=O)n(-c3ccc(Cl)c4c(NS(C)(=O)=O)nn(C)c34)c([C@H](Cc3cc(F)cc(F)c3)NC(=O)Cn3nc(C(F)F)c4c3C(F)(F)[C@@H]3C[C@H]43)nc2c1 (single isomer, unassigned)", "CC50 at 4 days": "> 1 µM"}
{"Compound": "O=C(Cn1nc(C(F)F)c2c1C(F)(F)[C@@H]1C[C@H]21)N[C@@H](Cc1cc(F)cc(F)c1)c1nc2cn[nH]c2cc1-c1ccc(S(=O)(=O)N2CCSCC2)cc1", "CC50 at 4 days": "5.01 µM"}

----------
Below, each entry is listed with its recorded CC50 at 4 days.
Experiment: Compound cytotoxicity, XTT-based colorimetric assay
Type: cell-based
Details: human, uninfected MT2 cells, Table 1a, day 4, XTT

{"Compound": "Cn1nc(NS(C)(=O)=O)c2c(Cl)ccc(-n3c([C@H](Cc4cc(F)cc(F)c4)NC(=O)Cn4nc(C(F)F)c5c4C(F)(F)[C@@H]4C[C@H]54)nc4cc(C(C)(C)C)ccc4c3=O)c21 (mixture of isomers)", "CC50 at 4 days": "> 1000 nM"}
{"Compound": "O=C(Cn1nc(C(F)F)c2c1C(F)(F)[C@@H]1C[C@H]21)NC(Cc1cc(F)cc(F)c1)c1nc2ncccc2c(=O)n1-c1ccc(Cl)cc1 (stereo partly drawn)", "CC50 at 4 days": "> 1000 nM"}
{"Compound": "CS(=O)(=O)Nc1nn(CC(F)F)c2c(-n3c([C@H](Cc4cc(F)cc(F)c4)NC(=O)Cn4nc(C(F)F)c5c4C(F)(F)[C@@H]4C[C@H]54)nc4ncccc4c3=O)ccc(Cl)c12 (single isomer, unassigned)", "CC50 at 4 days": "> 10000 nM"}

----------
Assay: Compound cytotoxicity, XTT-based colorimetric assay
Type: cell-based
Settings: human, uninfected MT2 cells, Table 1a, day 4, XTT
Value type: CC50 at 4 days

{"Compound": "COc1ccc(-n2c([C@H](Cc3cc(F)cc(F)c3)NC(=O)Cn3nc(C(F)F)c4c3C(F)(F)[C@@H]3C[C@H]43)nc3ncccc3c2=O)cn1", "Reported result": "> 10 µM"}
{"Compound": "COc1cccc2c(=O)n(-c3ccc(Cl)c4c(NS(C)(=O)=O)nn(C)c34)c([C@H](Cc3cc(F)cc(F)c3)NC(=O)Cn3nc(C(F)F)c4c3C(F)(F)[C@@H]3C[C@H]43)nc12 (single isomer, unassigned)", "Reported result": "> 1 µM"}
{"Compound": "Cn1nc(NS(C)(=O)=O)c2cccc(-n3c(C(Cc4cc(F)cc(F)c4)NC(=O)Cn4nc(C(F)F)c5c4C(F)(F)[C@@H]4C[C@H]54)nc4ccccc4c3=O)c21 (single isomer, unassigned)", "Reported result": "> 1 µM"}
{"Compound": "CC(C)n1nc(NS(C)(=O)=O)c2c(Cl)ccc(-n3c([C@H](Cc4cc(F)cc(F)c4)NC(=O)Cn4nc(C(F)F)c5c4C(F)(F)[C@@H]4C[C@H]54)nc4ncccc4c3=O)c21 (mixture of isomers)", "Reported result": "> 10 µM"}
{"Compound": "O=C(Cn1nc(C(F)F)c2c1C(F)(F)[C@@H]1C[C@H]21)N[C@@H](Cc1cc(F)cc(F)c1)c1nc2ccccc2nc1-c1ccc(S(=O)(=O)N2CCOCC2)cc1", "Reported result": "> 10 µM"}
